Cited source for all entries: PubChem BioAssay (NCATS)

# assay_comment: qHTS of pediatric cancer cell lines to identify multiple opportunities for drug repurposing: Primary screen for BT-37 cells (AID 1347094);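 note: plate controls were DMSO for no effect and bortezomib for full effect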
# cond: BT-37 viability, CellTiter-Glo luminescence, 48 h; series mostly up to 57.3 µM
Records with an inconclusive call do not appear. Calls of active or inactive are those of the source. Calls come from the whole dose curve; as a rule, active = well fitted cell-killing curve with a large enough effect; inconclusive = small, poorly fitted or top-dose-only effect; inactive = flat fitted curve, though single readings scatter.
Please reply with one of these outcomes: 1 (yes) for active, 0 (no) for inactive

Example cases with answers are listed next.
                                   compound     cat
0                            O=Cc1ccccc1C=O  0 (no)
1                CC1(C)CO[C@@H](CC(=O)O)CN1  0 (no)
2  C[C@@H]1CCN(C(=O)[C@H](CCCN=C(N)N)NS(=O)(=O)c2cccc3c2NC[C@H](C)C3)[C@@H](C(=O)O)C1  0 (no)
3              C[C@H](N)[C@H](O)c1cccc(O)c1  0 (no)
4  CC1=C(CC(=O)O)c2cc(F)ccc2/C1=C\c1ccc(S(C)(=O)=O)cc1  0 (no)

## Task Identify the outcome logged in this assay for the compound shown: Nc1ccc(S(=O)(=O)Nc2ccccc2)cc1
## Result 0 (no)

## Task Identify the outcome logged in this assay for the compound shown: CC1=C(C/C=C(\C)CCC[C@H](C)CCC[C@H](C)CCCC(C)C)C(=O)c2ccccc2C1=O
## Result 0 (no)

## Task Identify the outcome logged in this assay for the compound shown: Cc1cc2nc3c(=O)[nH]c(=O)nc-3n(C[C@H](O)[C@H](O)[C@H](O)CO)c2cc1C
## Result 0 (no)

## Task Identify the outcome logged in this assay for the compound shown: COc1ccc2cc1Oc1cc3c(cc1OC)CC[N+](C)(C)[C@H]3Cc1ccc(cc1)Oc1c(OC)c(OC)cc3c1[C@@H](C2)[N+](C)(C)CC3
## Result 0 (no)

## Task Identify the outcome logged in this assay for the compound shown: C[C@]12C[C@H](O)[C@H]3[C@@H](CCC4=CC(=O)CC[C@@]43C)[C@@H]1CC[C@@H]2C(=O)CO
## Result 0 (no)

----------
# Tested on: NIH3T3
# assay_comment: Cytotoxic Profiling of Annotated Libraries Using Quantitative High-Throughput Screening (AID 1296008); note: % is set by controls: 0 for no effect and ±100 for the full control effect; nearly all actives have a fitted effect of over 60% in size
# cond: Five cell lines viability, CellTiter-Glo ATP luminescence, 48-72 h; active compounds read low
# Method: Cell-based phenotypic screening is a commonly used approach to discover biological pathways, novel drug targets, chemical probes and high-quality hit-to-lead molecules. […] A pintool (Kalypsys) was used to transfer 23 nL of compound solution to the 1536-well assay plates. […] Plates were left at room temperature for 10 min before imaging the ATP-coupled luminescence using a ViewLux microplate imager (PerkinElmer, Waltham, MA).
Records with an inconclusive call do not appear.
Would you kindly list max response for each of these compounds?
Numbers only, in %.

Check out these entries, answers already filled in.
>>> df
                                   compound  value
0                         CC1(C)OC(=O)NC1=O   3.48
1  CN1CCCCC1CCN1c2ccccc2Sc2ccc(S(C)=O)cc21 (stereo unspecified)  -18.7
2    O=C(O)CC(O)C(=O)O (stereo unspecified)   4.82
3  Cc1cc(N)c2ccccc2[n+]1CCCCCCCCCC[n+]1c(C)cc(N)c2ccccc21  -20.7
4  CC(C)(C)C(=O)C(Oc1ccc(Cl)cc1)n1ccnc1 (stereo unspecified)  -7.83

For the next question, use this compound.
## Task # input compound: C[C@H](NC(CCc1ccccc1)C(=O)O)C(=O)N1CCC[C@H]1C(=O)O (stereo partly specified) ; wanted: its max response
## Result 1.23

----------
# System: CP260
# assay_comment: qHTS profiling for inhibitors of Plasmodium falciparum proliferation (AID 504749);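 note: 0% = DMSO vehicle and full inhibition = artemisinin control; nearly all actives have a fitted effect of over 60% in size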
# cond: P. falciparum in erythrocytes, SYBR Green DNA, 72 h; series mostly up to 28.7 µM
Records with an inconclusive call do not appear. The source made the active and inactive calls. The call rests on the fitted dose curve; in most records, active means well fitted inhibition curve with a large enough effect; inconclusive means small, poorly fitted or top-dose-only effect; inactive means flat fitted curve, though single readings scatter.
Please reply with one of these outcomes: 1 (active), -1 (inactive)

In [3]: df
Out[3]:
                               molecule  cat
0  Cc1cccc(C)c1NC(=O)CN(CC(=O)O)CC(=O)O   -1
1                   CCOC(=O)c1ccc(O)cc1   -1

## Task Identify the outcome logged in this assay for the molecule shown: COc1ccc2c(c1)C(=O)N(CCc1ccc(S(=O)(=O)NC(=O)NC3CCCCC3)cc1)C(=O)C2(C)C
## Result -1

## Task Identify the outcome logged in this assay for the molecule shown: Cc1cc2c(cc1S(N)(=O)=O)S(=O)(=O)CCC2
## Result -1

## Task Identify the outcome logged in this assay for the molecule shown: CC(=O)NC(Cc1ccccc1)C(=O)O (centres undefined)
## Result -1

## Task Identify the outcome logged in this assay for the molecule shown: CC(=O)CCC(=O)O
## Result -1

## Task Identify the outcome logged in this assay for the molecule shown: CCOC(=O)[C@H](CCc1ccccc1)N[C@@H](C)C(=O)N1C(=O)N(C)C[C@H]1C(=O)O
## Result -1

## Task Identify the outcome logged in this assay for the molecule shown: N[C@@H](CSCCCO)C(=O)O
## Result -1

## Task Identify the outcome logged in this assay for the molecule shown: CC(=O)c1ccc2c(c1)N(CCCN(C)C)c1ccccc1S2
## Result -1

----------
# assay_comment: HepG2 viability counterscreen (readout 2: ATP content) against the NCATS DSHEA and TCM libraries (AID 1794840);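 note: HepG2 cells exposed to substances for about 24 h; 0% is about no effect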
# cond: ATP content luminescence; series mostly up to 27.3 µM
Active and inactive are the calls of the source. The call rests on the fitted dose curve; in most records, active means well fitted curve in the direction sought with a large enough effect; inconclusive means small, poorly fitted or top-dose-only effect, or another doubt; inactive means no such curve, though single readings can be large or run the other way.
measured_quantity: outcome

>>> print(df.to_string())
                   compound_smiles  measured_quantity     value
0                  O=C(O)c1ccccc1O            outcome  inactive
1            CC12CCC(CC1)C(C)(C)O2            outcome  inactive
2  O=C1O[C@H]([C@@H](O)CO)C(O)=C1O            outcome  inactive
3         NC(N)=NCCC[C@H](N)C(=O)O            outcome  inactive

----------
# System: ECU
# assay_comment: qHTS profiling for inhibitors of Plasmodium falciparum proliferation (AID 504749);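 note: 0% = DMSO vehicle and full inhibition = artemisinin control; nearly all actives have a fitted effect of over 60% in size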
# cond: P. falciparum in erythrocytes, SYBR Green DNA, 72 h; series mostly up to 28.7 µM
Records with an inconclusive call do not appear. Activity calls are given as the source filed them. Calls follow the shape of the dose curve; as a rule, active = well fitted inhibition curve with a large enough effect; inconclusive = small, poorly fitted or top-dose-only effect; inactive = flat fitted curve, though single readings scatter.
Please reply with one of these outcomes: active, inactive

Example cases with answers are listed next.
>>> print(df.to_string())
                                   compound       cat
0                         C#CCN(C)Cc1ccccc1  inactive
1  OCc1cc(C(O)CNCCCCCCOCCCCc2ccccc2)ccc1O (stereo unspecified)  inactive
2  CC1=C(/C=C/C(C)=C/C=C/C(C)=C/C(=O)O)C(C)(C)CCC1  inactive
3                     NC(=O)NC(=O)Cc1ccccc1  inactive
4               CNCCCC1c2ccccc2C=Cc2ccccc21  inactive

## Task Identify the outcome logged in this assay for the compound shown: CC(CN1c2ccccc2Sc2ccccc21)N(C)C (stereo unspecified)
## Result inactive

## Task Identify the outcome logged in this assay for the compound shown: Nc1ccc(S(=O)(=O)Nc2nccs2)cc1
## Result inactive

## Task Identify the outcome logged in this assay for the compound shown: NC(CSCC(=O)O)C(=O)O (stereo unspecified)
## Result inactive

## Task Identify the outcome logged in this assay for the compound shown: O=c1[nH]c(=O)c2[nH]c(=O)[nH]c2[nH]1
## Result inactive

## Task Identify the outcome logged in this assay for the compound shown: CCOC(CN1CCN(CC(C)C(=O)c2ccccc2)CC1)c1ccccc1 (stereo unspecified)
## Result inactive

## Task Identify the outcome logged in this assay for the compound shown: Cc1cccc(C)c1NC(=O)CN(CC(=O)O)CC(=O)O
## Result inactive

## Task Identify the outcome logged in this assay for the compound shown: Cn1c(=O)c2c(ncn2CC2OCCO2)n(C)c1=O
## Result inactive

## Task Identify the outcome logged in this assay for the compound shown: Oc1cn2c(n1)Nc1ccc(Cl)c(Cl)c1C2
## Result inactive

## Task Identify the outcome logged in this assay for the compound shown: Cc1cc(C(C#N)c2ccc(Cl)cc2)c(Cl)cc1NC(=O)c1cc(I)cc(I)c1O (stereo unspecified)
## Result inactive

## Task Identify the outcome logged in this assay for the compound shown: Nc1ncnc2c1ncn2[C@@H]1O[C@H](CO)[C@@H](O)[C@H]1O
## Result inactive

## Task Identify the outcome logged in this assay for the compound shown: CC1(C)[C@@H]2CC[C@@]1(C)C(=O)C2
## Result inactive

## Task Identify the outcome logged in this assay for the compound shown: CC(C)(C)NCC(O)COc1ccc(NC(=O)NC2CCCCC2)cc1 (stereo unspecified)
## Result inactive

## Task Identify the outcome logged in this assay for the compound shown: CCOc1ccc2ccccc2c1C(=O)N[C@@H]1C(=O)N2[C@@H]1SC(C)(C)[C@@H]2C(=O)O
## Result inactive

## Task Identify the outcome logged in this assay for the compound shown: CCOC(=O)[C@H](CCc1ccccc1)N[C@@H](C)C(=O)N1C(=O)N(C)C[C@H]1C(=O)O
## Result inactive

## Task Identify the outcome logged in this assay for the compound shown: O=C1NS(=O)(=O)c2ccccc21
## Result inactive

## Task Identify the outcome logged in this assay for the compound shown: NCCNCCNCCN
## Result inactive
